# assay: Inhibition of RNase H activity of full length HIV reverse transcriptase using RNA-DNA duplex HTS-1 substrate
# Parameters: species or system Human immunodeficiency virus
reported endpoint: IC50 (µM)

structure_as_smiles=CCc1c(CC2CCCCC2)n(COCc2cccc(Cl)c2F)c(=O)n(O)c1=O reported_endpoint=IC50 inequality_sign== measured_number=1.1
structure_as_smiles=Cc1c(CC2CCCCC2)n(COCc2cccc(Cl)c2F)c(=O)[nH]c1=O reported_endpoint=IC50 inequality_sign=> measured_number=10
structure_as_smiles=CCc1c(CC2CCCCC2)n(COCc2ccc(F)cc2)c(=O)n(O)c1=O reported_endpoint=IC50 inequality_sign== measured_number=5.8
structure_as_smiles=Cc1c(CC2CCCCC2)n(COCc2cccc(Cl)c2F)c(=O)n(O)c1=O reported_endpoint=IC50 inequality_sign== measured_number=2.2
structure_as_smiles=CCc1c(CC2CCCCC2)n(COCc2ccc(F)c(F)c2)c(=O)[nH]c1=O reported_endpoint=IC50 inequality_sign=> measured_number=10
structure_as_smiles=Cc1c(CC2CCCCC2)n(COCCc2ccc(F)cc2)c(=O)[nH]c1=O reported_endpoint=IC50 inequality_sign=> measured_number=10
structure_as_smiles=CCc1c(CC2CCCCC2)n(COCc2ccccc2)c(=O)n(O)c1=O reported_endpoint=IC50 inequality_sign== measured_number=5.5
structure_as_smiles=CCc1c(CC2CCCCC2)n(COCc2ccc(F)c(F)c2)c(=O)n(O)c1=O reported_endpoint=IC50 inequality_sign== measured_number=1.7
structure_as_smiles=Cc1c(CC2CCCCC2)n(COCc2ccc(F)c(F)c2)c(=O)n(O)c1=O reported_endpoint=IC50 inequality_sign== measured_number=4.6
structure_as_smiles=CC(C)c1c(CC2CCCCC2)n(COCc2ccc(F)cc2)c(=O)[nH]c1=O reported_endpoint=IC50 inequality_sign=> measured_number=10
structure_as_smiles=CCc1c(CC2CCCCC2)n(COCc2ccccc2)c(=O)[nH]c1=O reported_endpoint=IC50 inequality_sign=> measured_number=10
structure_as_smiles=Cc1c(CC2CCCCC2)n(COCc2ccccc2)c(=O)n(O)c1=O reported_endpoint=IC50 inequality_sign== measured_number=3.1
structure_as_smiles=CCc1c(CC2CCCCC2)n(COCc2ccc(C(F)(F)F)cc2)c(=O)n(O)c1=O reported_endpoint=IC50 inequality_sign== measured_number=10
structure_as_smiles=CCc1c(CC2CCCCC2)n(COCc2ccc(C)cc2)c(=O)[nH]c1=O reported_endpoint=IC50 inequality_sign=> measured_number=10
structure_as_smiles=CC(C)c1c(CC2CCCCC2)n(COCc2ccccc2)c(=O)n(O)c1=O reported_endpoint=IC50 inequality_sign== measured_number=5.2
structure_as_smiles=CC(C)c1c(Cc2ccccc2)n(COCc2ccccc2)c(=O)[nH]c1=O reported_endpoint=IC50 inequality_sign=> measured_number=10
structure_as_smiles=CC(C)c1c(CC2CCCCC2)n(COCc2ccccc2)c(=O)[nH]c1=O reported_endpoint=IC50 inequality_sign=> measured_number=10
structure_as_smiles=CC(C)c1c(CC2CCCCC2)n(COCc2ccc(F)cc2)c(=O)n(O)c1=O reported_endpoint=IC50 inequality_sign== measured_number=2.7
structure_as_smiles=Cc1c(CC2CCCCC2)n(COCc2ccc(F)c(F)c2)c(=O)[nH]c1=O reported_endpoint=IC50 inequality_sign=> measured_number=10
structure_as_smiles=CCc1c(CC2CCCCC2)n(COCc2ccc(C)cc2)c(=O)n(O)c1=O reported_endpoint=IC50 inequality_sign== measured_number=2.1
structure_as_smiles=CCc1c(CC2CCCCC2)n(COCc2ccc(C(F)(F)F)cc2)c(=O)[nH]c1=O reported_endpoint=IC50 inequality_sign=> measured_number=10
structure_as_smiles=Cc1c(CC2CCCCC2)n(COCc2ccccc2)c(=O)[nH]c1=O reported_endpoint=IC50 inequality_sign=> measured_number=10
structure_as_smiles=Cc1c(CC2CCCCC2)n(COCc2ccc(C(F)(F)F)cc2)c(=O)n(O)c1=O reported_endpoint=IC50 inequality_sign== measured_number=7.6
structure_as_smiles=CCc1c(CC2CCCCC2)n(COCc2cccc(Cl)c2F)c(=O)[nH]c1=O reported_endpoint=IC50 inequality_sign=> measured_number=10
structure_as_smiles=Cc1c(CC2CCCCC2)n(COCc2ccc(C(F)(F)F)cc2)c(=O)[nH]c1=O reported_endpoint=IC50 inequality_sign=> measured_number=10
structure_as_smiles=CCc1c(CC2CCCCC2)n(COCc2ccc(F)cc2)c(=O)[nH]c1=O reported_endpoint=IC50 inequality_sign=> measured_number=10
structure_as_smiles=Cc1c(CC2CCCCC2)n(COCCc2ccc(F)cc2)c(=O)n(O)c1=O reported_endpoint=IC50 inequality_sign== measured_number=3.9
